Data provenance: ChEMBL document CHEMBL3769315

# Test system: Hepatitis C virus
# test_method_notes: Antiviral activity against HCV genotype 1a pseudoparticle infected in human Huh7.5.1 cells assessed as inhibition of virus entry at 10 uM after 4 hrs by luciferase reporter gene assay
# Type: functional, Hepacivirus hominis
# experimental_parameters: subtype 1a, Huh-7, 4 h
Please note: y applies when inhibition at 10 µM is 90% or greater, and n applies otherwise.

[[record]]
compound = "OCCOCCN1CCN(C(c2ccc(Cl)cc2)c2ccc(Cl)cc2)CC1"
assay_system = "Hepatitis C virus"
assigned_category = "n"

[[record]]
compound = "CCN1CCN(C(c2ccc(Cl)cc2)c2ccc(Cl)cc2)CC1"
assay_system = "Hepatitis C virus"
assigned_category = "n"

[[record]]
compound = "CN1CCN(C(c2ccc(Cl)cc2)c2ccc(Cl)cc2)CC1"
assay_system = "Hepatitis C virus"
assigned_category = "n"

[[record]]
compound = "NCCOCCOCCOCCOCCN1CCN(C(c2ccccc2)c2ccc(Cl)cc2)CC1 (racemic)"
assay_system = "Hepatitis C virus"
assigned_category = "y"

[[record]]
compound = "CN1CCN([C@@H](c2ccccc2)c2ccc(Cl)cc2)CC1"
assay_system = "Hepatitis C virus"
assigned_category = "y"

